- SUBJECT OF TEST: T1, human insulin receptor (human, UniProt P06213 28-1382)
- T1 construct: whole, on cells; receptor-transfected HEK293 cells in the phosphorylation assay
- METHOD NOTES: competition SPA, [125I]insulin
QUANTITY NAME: IC50

# input binder: IGF1(Y^B16L^B17)(AlaPro)^A-1,0 (ligand) chain 1: APGIVDECCFRSCDLRRLEMYCA chain 2: GPETLCGAELVDALYLVCGDRGFYFNKPT ; wanted: its IC50
1.93 nM
